organism: Homo sapiens; test: To identify inhibition of the IFN signalling (Jak-Stat) pathway via expression of an eGFP reporter gene under the control of an IFN-stimulated response element (ISRE) containing MxA promoter.; type: functional; design: scale not given: direction of the effect not stated beside the values; details: 30 µM
READOUT LABEL: Percent Effect (%)
Numbers only, in %.

Field: example entries. Status: answers known.
compound=CC(=O)Nc1nc(CN2CCn3c(nnc3C3CC3)C2)cs1 readout_label="Percent Effect" val=2.7
compound=Cc1cc(C)c2nc(CN3CC[C@@H](O)C3)cc(O)c2c1 readout_label="Percent Effect" val=-16.8
compound=CCn1cnnc1CNC(=O)c1ccc(Cl)cc1F readout_label="Percent Effect" val=5.91
compound=O=C(Cn1c(=O)n(Cc2ccco2)c2ncccc21)Nc1ccccn1 readout_label="Percent Effect" val=3.38
compound=O=C1[C@H]2CC[C@H](CN(Cc3ccccc3OC(F)F)C2)N1CC1CC1 readout_label="Percent Effect" val=19
compound=CCn1c(CN(C)C)nnc1C1CCN(Cc2cccc(OC)c2)CC1 readout_label="Percent Effect" val=10.6

Value sought for every listed compound: Percent Effect.
1. Cc1ccc(CN2CCc3ncc(CNS(C)(=O)=O)n3CC2)o1
2. Cc1cc(C(=O)N2Cc3ccccc3OC3(CCOCC3)C2)nc(N)n1
3. O=C(COc1coc(CN2CCCCCC2)cc1=O)c1ccccc1

Output:
1: 16.8; 2: 0.0795; 3: -1.04

Value sought for every listed compound: Percent Effect.
1. CN1CCCC1CNC(=O)c1nnn(-c2ccc(F)cc2)c1C1CC1 (stereo unspecified)
2. Cc1cccc(CN2C(=O)CC[C@@H]3[C@H]2CCN3CC2CCOCC2)n1

Output:
1. 10.9
2. -19.1

###

target: Sialic acid-binding Ig-like lectin 9 (Homo sapiens); assay: Hs-Siglec9 ALPHAscreen SOP 20170721; design: scale not given: direction of the effect not stated beside the values; details: 10 µM
READOUT LABEL: Percent Effect (%)
One number for each entry, in %.

Field: example entries. Status: answers known.
compound="CN1CCOC(CNCc2coc(-c3ccccc3)n2)C1 (configuration not stated)" readout_label="Percent Effect" val=-10.7
compound=CCOc1cccc2c1OCC(C(=O)NS(=O)(=O)c1ccc(Cl)cc1)=C2 readout_label="Percent Effect" val=7.55
compound="CCC1(CO)CCCN(c2ncccc2C#N)C1 (configuration not stated)" readout_label="Percent Effect" val=5.12
compound="Cc1cc(C)n(CC2CCCN2C(=O)CCCc2ccccn2)n1 (configuration not stated)" readout_label="Percent Effect" val=0.753
compound=CCN(CC)CC(=O)NCCc1csc(N2CCCC2)n1 readout_label="Percent Effect" val=-0.334

Value sought for every listed compound: Percent Effect.
1. Cc1ccc(=O)n(CC2(O)CCN(Cc3cnc(C)nc3)CC2)n1
2. COC(=O)N1CCCN(C(=O)NCc2ccc(Cl)s2)CC1
3. COCC(=O)N(C)Cc1cccc(Cl)c1
4. CC(C)c1cc(C(=O)N2CCN(Cc3ccsc3)CC2)n[nH]1
5. Cc1cnc(CN(C)CC2CCCN2c2cccnn2)cn1 (configuration not stated)
6. Cc1cc(S(=O)(=O)N2CCCc3ccc(F)cc32)sc1C(=O)O
7. Cc1nn(C)c(C)c1C1CCCN1C(=O)CCCn1cccn1 (configuration not stated)

Output:
1: -1.5; 2: -2.7; 3: -3.18; 4: 15; 5: -13.5; 6: 0.802; 7: -4.76
